biological target: cynomolgus PD-L1 (cynomolgus); assay: BLI
Sequence (chain, as listed by the source): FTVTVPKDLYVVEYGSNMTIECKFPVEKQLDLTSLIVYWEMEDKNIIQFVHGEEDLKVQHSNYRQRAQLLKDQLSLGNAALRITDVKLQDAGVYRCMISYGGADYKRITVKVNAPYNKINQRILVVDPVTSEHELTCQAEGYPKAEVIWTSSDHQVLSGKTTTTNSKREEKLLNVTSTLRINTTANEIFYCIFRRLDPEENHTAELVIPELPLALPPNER
Property measured: Kd (nM)
Just the number please, in nM, no unit attached.

Would you please look over these solved cases?
- Binder: "4E2-hv1-NT (antibody, V domains shown) VH: EVQLVESGGGLVKPGGSLRLSCAASGFSAGDVVMAWYRQAPGKQREFVANIAASSTTRYADSVKGRFTISRDNAKNSLYLQMNSLRAEDTAVYYCNALVWTGSSYNNWGQGTQVTVSS"
  Kd (nM): 3.4
- Binder: "1F4-hv7-NT (antibody, V domains shown) VH: QVQLVESGGGLVKPGGSLRLSCAASGFSASDVVMAWYRQAPGKQREFVANIAASSTTRYADSVKGRFTISRDNAKNSLYLQMNSLRAEDTAVYYCNALVWTGSSYNNWGQGTQVTVSS"
  Kd (nM): 3.87
- Binder: "4D2-hv1-NT (antibody, V domains shown) VH: QVQLVESGGGLVKPGGSLRLSCAASGFSASDVVMAWYRQAPGKQREFVANLGASSTTRYADSVKGRFTISRDNAKNSLYLQMNSLRAEDTAVYYCNALVWTGSSYNNWGQGTQVTVSS"
  Kd (nM): 3.76
- Binder: "5C12-hv7-NT (antibody, V domains shown) VH: QVQLVESGGGLVKPGGSLRLSCAASGFSASDVVMAWYRQAPGKQREFVSNIAARGSTDYADSVKGRFTISRDNAKNSLYLQMNSLRAEDTAVYYCNALVWTGSSYNNWGQGTQVTVSS"
  Kd (nM): 4.34

# input for lookup
## Task What value of measured Kd is listed for 4E2-hv2-NT (antibody, V domains shown) VH: EVQLVESGGGLVKPGGSLRLSCAASGFSAGDVVMAWYRQAPGKQREFVSNIAASSTTRYADSVKGRFTISRDNAKNSLYLQMNSLRAEDTAVYYCNALVWTGSSYNNWGQGTQVTVSS ?
## Result 3.24
